experiment: protein stability index of a GFP-peptide fusion (yeast GPS) (PSI 1-4); higher = more stable; sorted into four equal gates, so the index is relative within each strain; conditions: san1∆
OBSERVED_PROPERTY: protein stability index

sequence_input="LQKQILTVENKLQFETD [SMC1]" reported_value=2.55
sequence_input="DARGVIGVIAGGGRVDK [RPL2A]" reported_value=3.06
sequence_input="SENRDKFLQEFINLLLN [IRR1]" reported_value=2.43
sequence_input="DLSWSKQTDTGITHFRA [PRP8]" reported_value=3
sequence_input="KRRFGELMDRTGLKLYS [RPP1]" reported_value=2.23
sequence_input="NSQLVGKPHFSLLGGFD [PCI8]" reported_value=2.34
sequence_input="FESLYNSNDSVFVGSGK [BRR2]" reported_value=2.97
sequence_input="LRTVKEVQFGLFSPEEV [RPO21]" reported_value=3.02
sequence_input="AKQAKIRAGEFDVVLTT [SNF2]" reported_value=2.57
sequence_input="KIREDHINKIPSNSTTT [SRB8]" reported_value=2.54
sequence_input="SNDPDVNNTRRRVYNRV [BRN1]" reported_value=3
sequence_input="IIYPRSQTTLVQFGLNE [ARP9]" reported_value=2.03
sequence_input="SKRRITEELSITGEKLD [SMC1]" reported_value=2.18
sequence_input="RRILPKPSRTSRQVQKR [RPS7A]" reported_value=2.74
sequence_input="MQHNPLAGKRGPKSGST [PGD1]" reported_value=2.85
